Tested on: SR leukemia
test-method-notes: NCI-60 one-dose screen, 48 h (100 = growth as untreated, 0 = no growth, -100 = all killed)
condition: 10 µM unless noted
About 83,000 compounds went through this panel and 20% of them were active in at least one assay; those are over-represented in the sample as a whole.
Quick reference: growth of the listed items.
measurement-type: growth (%)

1) Nc1ccc(S(=O)(=O)c2ccc(Cl)cc2)cc1; 112
2) O=S(=O)(NCCNc1cc(-c2cn(-c3ccccc3)nc2-c2ccccc2)ccn1)c1ccc(F)cc1; 79.3
3) Nc1c(C(=O)Nc2ccccc2)sc2nc3c(cc12)CN(Cc1ccccc1)CC3; 55.6
4) Oc1ccc(Cl)cc1-c1cc(-c2ccc(Cl)cc2)n[nH]1; 41.6
5) CSc1nc(-c2cc3ccccc3o2)cc(-c2ccc(Cl)cc2)c1C#N; 82.6
6) O=S(=O)(NCCCNc1cc(-c2cn(-c3ccccc3)nc2-c2cccc(O)c2)ccn1)c1cccc2ccccc12; 13.9
7) COc1cccc2nc(Nc3ccc(NC(=O)c4ccc5ncccc5c4)cc3)ccc12; 65.7
8) COc1cc(OC)c(C(=O)/C=C/c2cccc(C#N)c2)c(OC)c1; 3.17
9) Cc1cc(C)c(S(=O)(=O)N2CCN(c3cc4c(cc3F)c(=O)c(C(=O)O)cn4C3CC3)CC2)c(C)c1; 39.1
10) CCCCNc1nnc(-c2cc(-c3cc4ccccc4o3)nn2-c2ccccc2)o1; 76.5
11) COc1ccc(C(=O)/C=C/c2ccc(/C=C/c3cc(OC)c(OC)c(OC)c3)cc2)cc1; 9.61
12) CCN1C(=O)N(CC)C2C1NN=c1s/c(=C\c3ccccn3)c(=O)n12 (stereo unspecified); 5.28
13) O=S(=O)(NCCCNc1nccc(-c2c(-c3ccccc3)nc3sccn23)n1)c1ccc(F)cc1; 34.6
14) COc1ccc(C2CC(=O)Nc3c2c(C)nn3-c2nc3ccccc3[nH]2)cc1OC (stereo unspecified); 32.8
15) CCOC(=O)C1=C(CSC(=S)N(C2CCCCC2)C2CCCCC2)N(C)C(=O)NC1c1ccccc1 (stereo unspecified); 29.9
16) CCN(CC)c1cc(/C=C/c2ccc(OC)c(OC)c2)nc2cc(F)c(F)cc12; 10.7
